- Tested on: human erythrocytes
- test_protocol: Hemolysis of human erythrocytes
- Format: cell-based
- condition_set: concentration causing 20% hemolysis; 0.5% RBC in PBS, 1 h, 37 °C, absorbance 450 nm, triplicate
Peptide text beside a SMILES is read from it.
Provide the reported HC20 of each item.
One number for each entry, in µM.

compound	output_unit	HC20
CC[C@H](C)[C@H](NC(=O)[C@H](CCCCN)NC(=O)[C@H](CCCCN)NC(=O)CNC(=O)[C@@H](NC(=O)[C@@H](N)CCCCN)[C@@H](C)CC)C(=O)N[C@@H](CC(C)C)C(=O)N[C@@H](CCCCN)C(=O)N[C@@H](C)C(=O)N[C@@H](CC(C)C)C(=O)N[C@@H](CCCCN)C(=O)NCC(=O)N[C@@H](C)C(=O)N[C@@H](CC(C)C)C(=O)N[C@@H](CCCCN)C(=O)N[C@@H](CCC(=O)O)C(=O)N[C@@H](CC(C)C)C(=O)N[C@@H](C)C(N)=O [MAPA] (H-KIGKKILKALKGALKELA-NH2)	µM	3

For every listed record, write down its HC20.
1. CC[C@H](C)[C@H](NC(=O)[C@H](CCCCN)NC(=O)[C@H](CC(C)C)NC(=O)[C@H](C)NC(=O)[C@H](CCCCN)NC(=O)[C@H](CC(C)C)NC(=O)[C@H](C)NC(=O)[C@@H](NC(=O)[C@H](CCCCN)NC(=O)[C@H](C)NC(=O)[C@@H](NC(=O)[C@@H](N)CCCCN)[C@@H](C)CC)C(C)C)C(=O)N[C@@H](C)C(=O)N[C@@H](CCCCN)C(=O)NCC(=O)N[C@@H](C)C(=O)N[C@@H](CC(C)C)C(=O)N[C@@H](CCCCN)C(=O)N[C@@H](C)C(=O)N[C@@H](CC(C)C)C(N)=O [KIA1] (H-KIAKVALKALKIAKGALKAL-NH2)
2. CC[C@H](C)[C@H](NC(=O)[C@H](CCCCN)NC(=O)[C@H](CC(C)C)NC(=O)[C@H](C)NC(=O)[C@H](CCCCN)NC(=O)[C@H](CC(C)C)NC(=O)[C@H](C)NC(=O)[C@@H](NC(=O)[C@H](CCCCN)NC(=O)[C@H](C)NC(=O)[C@@H](NC(=O)[C@@H](N)CCCCN)[C@@H](C)CC)C(C)C)C(=O)N[C@@H](C)C(=O)N[C@@H](CCCCN)C(=O)N[C@H](C(=O)N[C@@H](C)C(=O)N[C@@H](CC(C)C)C(=O)N[C@@H](CCCCN)C(=O)N[C@@H](C)C(=O)N[C@@H](CC(C)C)C(N)=O)C(C)C [PG2] (H-KIAKVALKALKIAKVALKAL-NH2)

Solution:
1: 6; 2: 14

* * *

- Tested on: human erythrocytes
- test_protocol: Hemolysis of human erythrocytes
- Type: cell-based
- condition_set: concentration causing 10% hemolysis; 0.5% RBC in PBS, 1 h, 37 °C, absorbance 450 nm, 0.2% Triton = 100%, triplicate
- Method: Fresh blood was obtained from a healthy donor. Blood was stored in a tube containing EDTA at 4 °C and used within 24 h. Before use, 1 mL of blood was centrifuged (400× g, 10 min), and the supernatant was discarded. Moreover, 500 μL cold PBS with EDTA (1 mM) was added, mixed and centrifuged. […] After centrifugation, the supernatant was added to a 96-well microtiter plate (150–180 μL), and the absorbance was measured at 450 nm, using EnSight Multimode Plate Reader (PerkinElmer, Inc.). […]
Peptide text beside a SMILES is read from it.
parameter: HC10 (µM)
Give bare numbers, in µM.

Problem: Can you share its HC10? I mean this compound: CC[C@H](C)[C@H](NC(=O)[C@H](CCCCN)NC(=O)[C@H](CCCCN)NC(=O)CNC(=O)[C@@H](NC(=O)[C@@H](N)CCCCN)[C@@H](C)CC)C(=O)N[C@@H](CC(C)C)C(=O)N[C@@H](CCCCN)C(=O)N[C@@H](C)C(=O)N[C@@H](CC(C)C)C(=O)N[C@@H](CCCCN)C(=O)NCC(=O)N[C@@H](C)C(=O)N[C@@H](CC(C)C)C(=O)N[C@@H](CCCCN)C(=O)N[C@@H](CCC(=O)O)C(=O)N[C@@H](CC(C)C)C(=O)N[C@@H](C)C(N)=O [MAPA] (H-KIGKKILKALKGALKELA-NH2)
Solution: 1.7

* * *

- System: human erythrocytes
- test_protocol: Hemolysis of human erythrocytes
- Type: cell-based
- condition_set: concentration causing 10% hemolysis; 0.5% RBC in PBS, 1 h, 37 °C, absorbance 450 nm, 0.2% Triton = 100%, triplicate
Peptide text beside a SMILES is read from it.
parameter: HC10 (µM)
Give bare numbers, in µM.

molecule	parameter	output_unit	experimental_result
CC[C@H](C)[C@H](NC(=O)[C@H](CCCCN)NC(=O)[C@H](CC(C)C)NC(=O)[C@H](C)NC(=O)[C@H](CCCCN)NC(=O)[C@H](CC(C)C)NC(=O)[C@H](C)NC(=O)[C@@H](NC(=O)[C@H](CCCCN)NC(=O)[C@H](C)NC(=O)[C@@H](NC(=O)[C@@H](N)CCCCN)[C@@H](C)CC)C(C)C)C(=O)N[C@@H](C)C(=O)N[C@@H](CCCCN)C(=O)NCC(=O)N[C@@H](C)C(=O)N[C@@H](CC(C)C)C(=O)N[C@@H](CCCCN)C(=O)N[C@@H](C)C(=O)N[C@@H](CC(C)C)C(N)=O [KIA1] (H-KIAKVALKALKIAKGALKAL-NH2)	HC10	µM	3
CC[C@H](C)[C@H](N)C(=O)N[C@@H](CC(=O)O)C(=O)N[C@@H](Cc1c[nH]c2ccccc12)C(=O)N[C@@H](CCCCN)C(=O)N[C@@H](CCCCN)C(=O)N[C@@H](CC(C)C)C(=O)N[C@@H](CC(C)C)C(=O)N[C@@H](CC(=O)O)C(=O)N[C@@H](C)C(=O)N[C@@H](C)C(=O)N[C@@H](CCCCN)C(=O)N[C@@H](CCC(N)=O)C(=O)N[C@H](C(=O)N[C@@H](CC(C)C)C(N)=O)[C@@H](C)CC [MP1, reference compound] (H-IDWKKLLDAAKQIL-NH2)	HC10	µM	20

Problem: Can you share its HC10? I mean this molecule: CC[C@H](C)[C@H](NC(=O)[C@H](CCCCN)NC(=O)[C@H](CC(C)C)NC(=O)[C@H](C)NC(=O)[C@H](CCCCN)NC(=O)[C@H](CC(C)C)NC(=O)[C@H](C)NC(=O)[C@@H](NC(=O)[C@H](CCCCN)NC(=O)[C@H](C)NC(=O)[C@@H](NC(=O)[C@@H](N)CCCCN)[C@@H](C)CC)C(C)C)C(=O)N[C@@H](C)C(=O)N[C@@H](CCCCN)C(=O)N[C@H](C(=O)N[C@@H](C)C(=O)N[C@@H](CC(C)C)C(=O)N[C@@H](CCCCN)C(=O)N[C@@H](C)C(=O)N[C@@H](CC(C)C)C(N)=O)C(C)C [PG2] (H-KIAKVALKALKIAKVALKAL-NH2)
Solution: 3

* * *

- Tested on: human erythrocytes
- test_protocol: Hemolysis of human erythrocytes
- Assay type: cell-based
- condition_set: concentration causing 50% hemolysis; 0.5% RBC in PBS, 1 h, 37 °C, absorbance 450 nm, triplicate
Peptide text beside a SMILES is read from it.
Provide the reported HC50 of each item.
One number for each entry, in µM.

Previously resolved entries follow.
compound	HC50 [µM]
CC[C@H](C)[C@H](NC(=O)[C@H](CCCCN)NC(=O)[C@H](CC(C)C)NC(=O)[C@H](C)NC(=O)[C@H](CCCCN)NC(=O)[C@H](CC(C)C)NC(=O)[C@H](C)NC(=O)[C@@H](NC(=O)[C@H](CCCCN)NC(=O)[C@H](C)NC(=O)[C@@H](NC(=O)[C@@H](N)CCCCN)[C@@H](C)CC)C(C)C)C(=O)N[C@@H](C)C(=O)N[C@@H](CCCCN)C(=O)N[C@H](C(=O)N[C@@H](C)C(=O)N[C@@H](CC(C)C)C(=O)N[C@@H](CCCCN)C(=O)N[C@@H](C)C(=O)N[C@@H](CC(C)C)C(N)=O)C(C)C [PG2] (H-KIAKVALKALKIAKVALKAL-NH2)	18
CC[C@H](C)[C@H](NC(=O)[C@H](CCCCN)NC(=O)[C@H](CCCCN)NC(=O)CNC(=O)[C@@H](NC(=O)[C@@H](N)CCCCN)[C@@H](C)CC)C(=O)N[C@@H](CC(C)C)C(=O)N[C@@H](CCCCN)C(=O)N[C@@H](C)C(=O)N[C@@H](CC(C)C)C(=O)N[C@@H](CCCCN)C(=O)NCC(=O)N[C@@H](C)C(=O)N[C@@H](CC(C)C)C(=O)N[C@@H](CCCCN)C(=O)N[C@@H](CCC(=O)O)C(=O)N[C@@H](CC(C)C)C(=O)N[C@@H](C)C(N)=O [MAPA] (H-KIGKKILKALKGALKELA-NH2)	20
CC[C@H](C)[C@H](N)C(=O)N[C@@H](CC(=O)O)C(=O)N[C@@H](Cc1c[nH]c2ccccc12)C(=O)N[C@@H](CCCCN)C(=O)N[C@@H](CCCCN)C(=O)N[C@@H](CC(C)C)C(=O)N[C@@H](CC(C)C)C(=O)N[C@@H](CC(=O)O)C(=O)N[C@@H](C)C(=O)N[C@@H](C)C(=O)N[C@@H](CCCCN)C(=O)N[C@@H](CCC(N)=O)C(=O)N[C@H](C(=O)N[C@@H](CC(C)C)C(N)=O)[C@@H](C)CC [MP1, reference compound] (H-IDWKKLLDAAKQIL-NH2)	170

Note: attention shifts to another entry.
Problem: Can you share its HC50? I mean this compound: CC[C@H](C)[C@H](NC(=O)[C@H](CCCCN)NC(=O)[C@H](CC(C)C)NC(=O)[C@H](C)NC(=O)[C@H](CCCCN)NC(=O)[C@H](CC(C)C)NC(=O)[C@H](C)NC(=O)[C@@H](NC(=O)[C@H](CCCCN)NC(=O)[C@H](C)NC(=O)[C@@H](NC(=O)[C@@H](N)CCCCN)[C@@H](C)CC)C(C)C)C(=O)N[C@@H](C)C(=O)N[C@@H](CCCCN)C(=O)NCC(=O)N[C@@H](C)C(=O)N[C@@H](CC(C)C)C(=O)N[C@@H](CCCCN)C(=O)N[C@@H](C)C(=O)N[C@@H](CC(C)C)C(N)=O [KIA1] (H-KIAKVALKALKIAKGALKAL-NH2)
Solution: 20

Reference source for all entries: paper PMC7436000
